target: OGA (Homo sapiens, UniProt O60502)
Construct: HEK293 cells inducible for P301L mutant human Tau (isoform 2N4R) were established at Janssen; endogenous in cells; host or cells: HEK293 cells inducible for P301L mutant human Tau (2N4R)
procedure_text: OGA cellular assay (ICC detection of O-GlcNAcylated proteins in HEK293 cells inducible for P301L mutant human Tau)
Assay type: cell-based
experimental_parameters: HEK293, HEK293 cells inducible for P301L mutant human Tau, maximum = Thiamet G 200 uM
Label rule, in plain words: Emax of 70% and up is yes (1), under 70% is no (0).

Look over these answered cases.
Please tell me: is the molecule Cc1cc(NC[C@H]2CCCN(C(C)c3ccc4sc(C)nc4n3)C2)nc(C)n1 (some centres unmarked) at or over 70% in terms of Emax?
yes (1)

For this molecule, is measured Emax 70% or higher? Cc1cc(C[C@H]2CCCN([C@H](C)c3ccc4oc(C)nc4n3)C2)cc(OC(F)(F)F)n1 [Compound 25a]
yes (1)

Please check the record Cc1cc(OC2CCCN(C(C)c3ccc4sc(C)nc4n3)C2)cc(C)n1 (centres unmarked) and state if its Emax is at or above 70%.
no (0)

Confirm if Emax reported for the molecule COc1cc(C2CCCN(C(C)c3ccc4oc(C)nc4n3)C2)cc(C(F)(F)F)n1 (racemic) is 70% or above.
no (0)

API: above_or_equal(metric=Emax, cutoff=70%) for item Cc1cc(C[C@@H]2CCN(C(C)c3ccc4oc(C(C)C)nc4n3)C2)cc(C)n1 (mixture of isomers)
no (0)

More entries:
Is reported Emax greater than or equal to 70% here: Cc1cc(O[C@@H]2CCN(C(C)c3cc4nc(C)sc4cc3F)C2)cc(C)n1 (some centres unmarked)
no (0)

Dear colleague, could you confirm whether Cc1cc(C[C@H]2CCCN(C(C)c3ccc4oc(C)nc4n3)C2)cc(OC(F)(F)F)n1 (mixture of isomers) [Compound 25ab] has Emax at or above 70%?
yes (1)
